Can you tell me GI50 for the items I'm about to list?
Tested on: A549 lung cancer cells
assay protocol: A549 proliferation, sulforhodamine B (SRB) assay
Format: cell-based, human
conditions: Homo sapiens, A549, Table 1 of b280; sulforhodamine B assay, triplicate
The response must be a number in µM with no trailing unit.

Measured GI50, O=C(O)/C(Cc1ccccc1[N+](=O)[O-])=N/Nc1nc(-c2ccc(Cl)c(Cl)c2)cs1 [Z-1] : 6

Measured GI50, C(/Cc1ccccc1)=N/Nc1nc(-c2ccccc2)cs1 [Z-5] : 7

Measured GI50, O=C(O)/C(Cc1ccccc1[N+](=O)[O-])=N/Nc1nc(-c2ccc(-c3ccccc3)cc2)cs1 : 4

Measured GI50, OC/C(Cc1ccccc1)=N/Nc1nc(-c2ccccc2)cs1 [Z-15] : 14

Measured GI50, COC(=O)/C(Cc1ccccc1)=N/Nc1nc(-c2ccccc2)cs1 [Z-13] : 11

###

target or system: eIF4E/eIF4G interaction (Mus musculus)
Construct: made in house; host or cells: E. coli
assay protocol: Fluorescence polarization assay: binding of fluorescein-labeled eIF4G peptide to eIF4E
Design: species or system murine
conditions: Table 1 of b280; triplicate, SD<±10%; read-out: IC50 (μM) (4E/4G FP)
Can you tell me IC50 for the items I'm about to list?

Measured IC50, O=C(O)/C(Cc1ccccc1)=N/Nc1nc(-c2ccccc2)cs1 [Z-4] : 240 µM

Measured IC50, O=C(O)/C(Cc1ccccc1)=N\Nc1nnc(-c2ccccc2)s1 : > 600 µM

Measured IC50, O=C(O)/C(Cc1ccccc1[N+](=O)[O-])=N/Nc1nc(-c2ccccc2)cs1 : > 600 µM

Measured IC50, C/C(=N\Nc1nc(-c2ccccc2)cs1)C(=O)O : > 600 µM

Measured IC50, O=C(O)C(Cc1ccccc1)C(=O)Nc1nc(-c2ccccc2)cs1 (centres unmarked) [drawing 70] : > 600 µM

Measured IC50, O=C(O)/C(=C\c1ccccc1)NCc1nc(-c2ccccc2)cs1 : > 600 µM

Measured IC50, Cc1sc(N/N=C(\Cc2ccccc2)C(=O)O)nc1-c1ccccc1 [E-9] : 350 µM

Measured IC50, OC/C(Cc1ccccc1)=N/Nc1nc(-c2ccccc2)cs1 : > 600 µM

Measured IC50, Cc1sc(N/N=C(\Cc2ccccc2)C(=O)O)nc1-c1ccccc1 [Z-9] : 240 µM

Measured IC50, COC(=O)/C(Cc1ccccc1)=N/Nc1nc(-c2ccccc2)cs1 : > 600 µM

Measured IC50, O=C(O)/C(Cc1ccccc1)=N/Nc1nc(-c2ccc(Cl)c(Cl)c2)cs1 [E-3] : 355 µM

Measured IC50, O=C(NC(Cc1ccccc1)C(=O)O)c1nc(-c2ccccc2)cs1 (centres unmarked) [drawing 69] : > 600 µM

Measured IC50, O=C(O)/C(Cc1ccccc1[N+](=O)[O-])=N/Nc1nc(-c2ccc(N3CCCC3)cc2)cs1 : > 600 µM

Measured IC50, O=C(O)/C(Cc1ccccc1)=N/Nc1ccc(-c2ccccc2)nn1 : > 600 µM

Measured IC50, O=C(O)C(Cc1ccccc1)=NNc1nc(-c2ccc3c(c2)OCCO3)cs1 (mixture of isomers) : 170 µM

Measured IC50, O=C(O)/C(Cc1ccccc1[N+](=O)[O-])=N/Nc1nc(-c2ccc3ccccc3c2)cs1 : 215 µM

Measured IC50, O=C(O)/C(Cc1ccccc1)=N/Nc1nc(-c2ccc(N3CCOCC3)cc2)cs1 : > 125 µM

Measured IC50, O=C(O)/C(Cc1ccccc1)=N/Nc1nc(-c2ccccc2)c(-c2ccccc2)s1 [E-10] : 90 µM

Measured IC50, O=C(O)/C(Cc1ccccc1)=N/Nc1nc2ccccc2s1 : > 600 µM

Measured IC50, O=C(O)/C(Cc1ccccc1)=N/Nc1nc(-c2ccccc2)cs1 [E-4] : > 600 µM

###

target or system: eIF4E/eIF4G interaction (Mus musculus, UniProt P63073)
Construct: made in house; host or cells: E. coli
Sequence (P63073 whole entry): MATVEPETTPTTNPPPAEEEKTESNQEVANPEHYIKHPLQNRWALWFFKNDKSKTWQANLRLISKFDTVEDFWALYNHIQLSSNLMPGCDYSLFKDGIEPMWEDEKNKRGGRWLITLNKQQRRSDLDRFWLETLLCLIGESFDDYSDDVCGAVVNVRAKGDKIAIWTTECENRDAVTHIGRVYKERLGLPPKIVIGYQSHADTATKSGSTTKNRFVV
assay protocol: Fluorescence polarization assay: binding of fluorescein-labeled eIF4G peptide to eIF4E
Design: species or system murine
conditions: Table 1 of b280; triplicate, SD<±10%; read-out: IC50 (μM) (4E/4G FP)
property name: IC50 (µM)
The response must be a number in µM with no trailing unit.

Measured IC50, O=C(O)/C(Cc1ccccc1)=N/NC(=S)NCc1ccccc1 : 550

Measured IC50, O=C(O)C(Cc1ccccc1[N+](=O)[O-])=NNc1nc(-c2ccc(/N=N/c3ccccc3)cc2)cs1 (mixture of isomers) : 150

Measured IC50, O=C(O)/C(Cc1ccccc1)=N/Nc1nc(-c2ccccc2)c(-c2ccccc2)s1 [Z-10] : 50

Measured IC50, O=C(O)/C(Cc1ccccc1)=N/Nc1nc(-c2ccc(Cl)c(Cl)c2)cs1 [Z-3] : 300

Measured IC50, O=C(O)/C(Cc1ccccc1)=N/Nc1nc(-c2ccc3c(c2)OCCCO3)cs1 : 400

Measured IC50, O=C(O)C(Cc1ccccc1)=NNc1nc(-c2ccc(C3CCCCC3)cc2)cs1 (mixture of isomers) : 100

###

target or system: eIF4E/eIF4G interaction (Mus musculus)
Construct: made in house; host or cells: E. coli
assay protocol: Fluorescence polarization assay: binding of fluorescein-labeled eIF4G peptide to eIF4E
Design: species or system murine
conditions: Table 1 of b347; triplicate, SD<±10%; read-out: IC50 (μM) (4E/4G FP)
Can you tell me IC50 for the items I'm about to list?

Bench note, eIF4E/eIF4G interaction (Mus musculus): O=C(O)/C(=N/Nc1nc(-c2ccccc2)cs1)c1ccccc1 , IC50 reads > 600 µM

Bench note, eIF4E/eIF4G interaction (Mus musculus): Cc1sc(N/N=C(\Cc2ccccc2)C(=O)O)nc1-c1ccccc1 [E-9] , IC50 reads > 300 µM

Bench note, eIF4E/eIF4G interaction (Mus musculus): O=C(O)/C(Cc1ccccc1)=N/Nc1ccc(-c2ccccc2)nn1 , IC50 reads > 600 µM

Bench note, eIF4E/eIF4G interaction (Mus musculus): O=C(O)C(Cc1ccccc1)=NNc1nnc(-c2ccccc2)s1 , IC50 reads > 600 µM

Bench note, eIF4E/eIF4G interaction (Mus musculus): O=C(O)/C(Cc1ccccc1[N+](=O)[O-])=N/Nc1nc(-c2ccccc2)cs1 , IC50 reads > 600 µM

Bench note, eIF4E/eIF4G interaction (Mus musculus): O=C(O)/C(Cc1ccccc1)=N/Nc1nc(-c2ccc(Cl)c(Cl)c2)cs1 , IC50 reads 355 µM

Bench note, eIF4E/eIF4G interaction (Mus musculus): O=C(O)/C(Cc1ccccc1)=N\Nc1nnc(-c2ccccc2)s1 , IC50 reads > 600 µM

Bench note, eIF4E/eIF4G interaction (Mus musculus): O=C(O)/C(Cc1ccccc1)=N/Nc1nc(-c2ccccc2)cs1 [E-4] , IC50 reads > 600 µM

Bench note, eIF4E/eIF4G interaction (Mus musculus): O=C(Cc1ccccc1)NNc1nc(-c2ccccc2)cs1 , IC50 reads > 600 µM

Bench note, eIF4E/eIF4G interaction (Mus musculus): COC(=O)/C(Cc1ccccc1)=N/Nc1nc(-c2ccccc2)cs1 , IC50 reads > 600 µM

Bench note, eIF4E/eIF4G interaction (Mus musculus): O=C(O)C(CNc1nc(-c2ccccc2)cs1)Cc1ccccc1 (stereo not drawn) , IC50 reads > 600 µM

Bench note, eIF4E/eIF4G interaction (Mus musculus): O=C(O)C(Cc1ccccc1)C(=O)Nc1nc(-c2ccccc2)cs1 (stereo not drawn) , IC50 reads > 600 µM

Bench note, eIF4E/eIF4G interaction (Mus musculus): O=C(O)/C(Cc1ccccc1)=N/Nc1nc2ccccc2s1 , IC50 reads > 600 µM

Bench note, eIF4E/eIF4G interaction (Mus musculus): O=[N+]([O-])c1ccccc1CC(CO)NNc1nc(-c2ccc(Cl)c(Cl)c2)cs1 (stereo not drawn) , IC50 reads > 600 µM

Bench note, eIF4E/eIF4G interaction (Mus musculus): O=C(O)/C(Cc1ccccc1)=N/Nc1nc(-c2ccccc2)cs1 [Z-4] , IC50 reads 240 µM

Bench note, eIF4E/eIF4G interaction (Mus musculus): C(/Cc1ccccc1)=N/Nc1nc(-c2ccccc2)cs1 , IC50 reads > 600 µM

Bench note, eIF4E/eIF4G interaction (Mus musculus): O=C(O)/C(Cc1ccccc1)=N/NC(=S)NCc1ccccc1 , IC50 reads 550 µM

Bench note, eIF4E/eIF4G interaction (Mus musculus): C/C(=N\Nc1nc(-c2ccccc2)cs1)C(=O)O , IC50 reads > 600 µM

###

target or system: eIF4E/eIF4G interaction (Mus musculus, UniProt P63073)
Construct: made in house; host or cells: E. coli
assay protocol: Fluorescence polarization assay: binding of fluorescein-labeled eIF4G peptide to eIF4E
Parameters: species or system murine
conditions: Table 1 of b347; triplicate, SD<±10%; read-out: IC50 (μM) (4E/4G FP)
property name: IC50

Measured IC50, Cc1sc(N/N=C(\Cc2ccccc2)C(=O)O)nc1-c1ccccc1 [Z-9] : 240 µM

Measured IC50, O=C(NC(Cc1ccccc1)C(=O)O)c1nc(-c2ccccc2)cs1 (centres unmarked) [compound 18] : > 600 µM

Measured IC50, OC/C(Cc1ccccc1)=N/Nc1nc(-c2ccccc2)cs1 [Z-15] : > 600 µM

Measured IC50, NC(=O)/C(Cc1ccccc1)=N/Nc1nc(-c2ccccc2)cs1 [E-21] : > 600 µM

Measured IC50, O=C(O)/C(Cc1ccccc1)=N/Nc1nc(-c2ccccc2)c(-c2ccccc2)s1 [Z-10] : 50 µM

Measured values drawn from patent US8257931B2 for this set.
